The following variants are listed with their measured polymerase ribozyme fitness (log ratio) values.
B1: TPR 5TU (parent)
chain: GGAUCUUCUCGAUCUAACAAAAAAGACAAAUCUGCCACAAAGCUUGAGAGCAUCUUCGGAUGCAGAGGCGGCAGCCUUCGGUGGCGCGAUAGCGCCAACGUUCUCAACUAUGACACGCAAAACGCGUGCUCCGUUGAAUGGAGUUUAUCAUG

Variants of: B1
assay_procedure: polymerase ribozyme fitness, log enrichment relative to wild type (log ratio); higher = more active; in vitro selection for triplet polymerase activity
Variants at the floor of the assay were thinned out.

[
  {
    "mutation_list": "U6G A16U G58A G141U",
    "metric_name": "polymerase ribozyme fitness (log ratio)",
    "result": -1.34
  }
]

Please turn your attention to the following entry.
Entry A17G G100U has what polymerase ribozyme fitness (log ratio)?
-4.01
